- assayProtocol: xn = mol fraction of the nth substance listed
- condition: 298.15 K; 101.3 kPa; Liquid; Vibrating tube method; x1 = 0.4
Exercise: state measured mass density for each of the molecules provided.
Give bare numbers, in kg/m3.

Recorded results for 4 molecules are shown here.
[
  {
    "molecule": "O=C1CCCC1 [cyclopentanone] + CCCCO",
    "reportedResult": 864.47
  },
  {
    "molecule": "O=C1CCCC1 [cyclopentanone] + CCCCCCCCO",
    "reportedResult": 850.89
  },
  {
    "molecule": "O=C1CCCC1 [cyclopentanone] + CCO",
    "reportedResult": 871.79
  },
  {
    "molecule": "O=C1CCCC1 [cyclopentanone] + CCCCCCO",
    "reportedResult": 853.65
  }
]

Bench note: what mass density did O=C1CCCC1 [cyclopentanone] + CCCCCCCCCCO show? 847.47

---

- assayProtocol: relative permittivity at various frequencies (dimensionless); xn = mol fraction of the nth substance listed
- condition: 298.15 K; 101.3 kPa; Liquid; Frequency=0.01 MHz; Coaxial cylinder capacitor; x1 = 0.6
Criterion: relative permittivity meeting or surpassing 10. Met: Criterion met. Not met: Criterion not met.

Worked cases, answers included:
[
  {
    "compound": "O=C1CCCC1 [cyclopentanone] + CCCCCCCCCCO",
    "classification": "Criterion not met"
  },
  {
    "compound": "O=C1CCCC1 [cyclopentanone] + CCO",
    "classification": "Criterion met"
  },
  {
    "compound": "O=C1CCCC1 [cyclopentanone] + CCCCCCCCO",
    "classification": "Criterion met"
  }
]

Item O=C1CCCC1 [cyclopentanone] + CCCCCCO with relative permittivity of 10 or above? Criterion met

Repeat with O=C1CCCC1 [cyclopentanone] + C1CCCCC1 Criterion not met

Repeat with O=C1CCCC1 [cyclopentanone] + CCCCO Criterion met

---

Exercise: state measured mass density for each of the molecules provided.
- assayProtocol: xn = mol fraction of the nth substance listed
- condition: 298.15 K; 101.3 kPa; Liquid; Vibrating tube method; x1 = 0.5
Give bare numbers, in kg/m3.

Recorded results for 4 molecules are shown here.
[
  {
    "molecule": "O=C1CCCC1 [cyclopentanone] + CCCCCCCCO",
    "mass density [kg/m3]": 862.2
  },
  {
    "molecule": "O=C1CCCC1 [cyclopentanone] + CCCCCCO",
    "mass density [kg/m3]": 866.02
  },
  {
    "molecule": "O=C1CCCC1 [cyclopentanone] + CCO",
    "mass density [kg/m3]": 888.17
  },
  {
    "molecule": "O=C1CCCC1 [cyclopentanone] + CCCCO",
    "mass density [kg/m3]": 878.88
  }
]

Bench note: what mass density did O=C1CCCC1 [cyclopentanone] + CCCCCCCCCCO show? 857.91

---

Exercise: state measured relative permittivity for each of the molecules provided.
- assayProtocol: relative permittivity at various frequencies (dimensionless); xn = mol fraction of the nth substance listed
- condition: 298.15 K; 101.3 kPa; Liquid; Frequency=0.01 MHz; Coaxial cylinder capacitor; x1 = 0.3
Numbers only.

[
  {
    "molecule": "O=C1CCCC1 [cyclopentanone] + CCO",
    "relative permittivity": 19.16
  },
  {
    "molecule": "O=C1CCCC1 [cyclopentanone] + CCCCO",
    "relative permittivity": 14.58
  },
  {
    "molecule": "O=C1CCCC1 [cyclopentanone] + CCCCCCCCCCO",
    "relative permittivity": 8.07
  },
  {
    "molecule": "O=C1CCCC1 [cyclopentanone] + CCCCCCO",
    "relative permittivity": 11.68
  },
  {
    "molecule": "O=C1CCCC1 [cyclopentanone] + CCCCCCCCO",
    "relative permittivity": 9.5
  }
]

Bench note: what relative permittivity did O=C1CCCC1 [cyclopentanone] + C1CCCCC1 show? 4.51
